Where a name gives a salt, the structure may show the parent alone.
Measured melting point, listed per entry for reference.

CCOC(=O)c1ccc2c(c1)ncn2-c1cccc(COCc2ccccn2)c1 :: 99.8 to 101.2 °C
ON=Cc1ccc2c(c1)ncn2-c1cccc(CNCc2ccc(F)c(F)c2)c1 :: 165 to 167 °C
ON=Cc1ccc2c(c1)ncn2-c1cccc(COCc2ccccn2)c1 :: 154 to 154.8 °C
CC(=NO)c1ccc2c(c1)ncn2-c1cccc(COCc2ncnn2C)c1 (as salt: chloride) [Compound 22a] :: 178.8 to 180.4 °C

Request the reported melting point associated with `c1ccc(COCc2cccc(-n3cnc4cc(CN5CCCC5)ccc43)c2)nc1` 192 to 194 °C

From: patent US7776900B2
